- assayName: NCI Yeast Anticancer Drug Screen. Data for the sgs1 mgt1 strain (AID 161);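 further: 0% = growth of cultures given vehicle only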
- conditionDetails: S. cerevisiae sgs1 mgt1 strain, at 50.0 µM
Compounds without any hit were thinned out: in the full panel of roughly 79,000, 15% have a hit. The source made the active and inactive calls. No stated cut-off is given here; in the data, active means growth inhibition above about 70%; inactive means the rest.
Outcome codes: label 1 = active, label 0 = inactive

* Cc1ccc(S(=O)(=O)OC2COC3C(OS(=O)(=O)c4ccc(C)cc4)COC23)cc1 (stereo not given) | label 0
* CC12C=CC(=O)C=C1CCC1C3CCC(O)(C(=O)CO)C3(C)CC(O)C12F (stereo not given) | label 0
* Clc1ccc2c(NC3CCC(N4CCCCC4)CC3)ccnc2c1 (stereo not given) | label 0
* CC(C)=CCc1c2c(c(O)c3c(=O)c(-c4ccc(O)cc4O)coc13)C=CC(C)(C)O2 | label 1
* Cc1ncc(CO)c(C=NCCCCCCN=Cc2c(CO)cnc(C)c2[O-])c1[O-].[Cu+2] | label 0

---

- assayName: NCI Yeast Anticancer Drug Screen. Data for the mlh1 rad18 strain (AID 175)
- conditionDetails: S. cerevisiae mlh1 rad18 strain growth inhibition; at 50.0 µM; stronger effect = higher value
The panel holds about 79,000 compounds, 15% with a hit somewhere; the sample as a whole holds those more often.
Collected growth inhibition values appear next to each entry.
valueType: growth inhibition (%)

- CC(C)c1ncc(-c2ccccc2)cc1-c1ccccc1: 96
- CN1C(=O)C23SSC1(C)C(=O)N2c1ccccc1C3(C)C (stereo unspecified): 99.3
- CS[C@H]1CC[C@H]2[C@@H]3CCc4cc(O)ccc4[C@H]3CC[C@]12C: 85.8
- Oc1ccc(O)c2nc3ccccc3nc12: 76.4
- O=C1CN=C(c2ccccc2)N(c2ccccc2)N1: 94.4
- CCOC(=O)C(=Cc1cccnc1C)C(=O)OCC: 57.7

---

- assayName: NCI Yeast Anticancer Drug Screen. Data for the sgs1 mgt1 strain (AID 161);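 further: 0% = growth of cultures given vehicle only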
- conditionDetails: S. cerevisiae sgs1 mgt1 strain, at 50.0 µM
The panel holds about 79,000 compounds, 15% with a hit somewhere; the sample as a whole holds those more often. Activity calls are given as the source filed them. Cut-off read from the data, not from the text of the source: active = growth inhibition above about 70%; inactive = the rest.
Outcome codes: 1 (yes) (active), 0 (no) (inactive)

• Cc1ccnc2[nH]c3ccccc3c(=O)c12 = 0 (no)
• CCCCCCCCCCCCCC/[N+]([O-])=C/c1ccc([N+](=O)[O-])o1 = 0 (no)
• CCOC(=O)/C(=C\N1C(=O)/C(=C\C(C)=C\c2ccccc2)SC1=S)C(=O)c1ccccc1 = 0 (no)
• CCCCn1c(C)nc2cc(C(F)(F)F)cc(N)c21 = 1 (yes)
• S=C(Nc1ccccc1)SCc1ccc(Cl)cc1 = 1 (yes)
• CN(c1ccc(C(N)=O)cc1)c1c(O)c2ccccc2[nH]c1=O = 0 (no)
• Nc1ccccc1O = 0 (no)
• CC(=O)/C(=C\c1ccc(N(C)C)cc1)C(C)=[N+](C)C(=O)c1c(/[N+](C)=C(C)\C(=C\c2ccc(N(C)C)cc2)C(C)=O)ncn1C = 1 (yes)
• CCCCNCCC(SSSC(CCNCCCC)c1ccc(Cl)cc1)c1ccc(Cl)cc1 (stereo unspecified) = 1 (yes)
• COc1ccc(NS(=O)(=O)c2ccc(N=Cc3c4ccccc4nc4cc(Cl)ccc34)cc2)nn1 = 1 (yes)
• COc1ccc(CCN2C(=O)C(=O)N(C3CCCCC3)C2=O)cc1OC = 0 (no)
